Molecular target: Angiotensin-converting enzyme (Oryctolagus cuniculus, UniProt P12822)
Sequence (P12822 whole entry): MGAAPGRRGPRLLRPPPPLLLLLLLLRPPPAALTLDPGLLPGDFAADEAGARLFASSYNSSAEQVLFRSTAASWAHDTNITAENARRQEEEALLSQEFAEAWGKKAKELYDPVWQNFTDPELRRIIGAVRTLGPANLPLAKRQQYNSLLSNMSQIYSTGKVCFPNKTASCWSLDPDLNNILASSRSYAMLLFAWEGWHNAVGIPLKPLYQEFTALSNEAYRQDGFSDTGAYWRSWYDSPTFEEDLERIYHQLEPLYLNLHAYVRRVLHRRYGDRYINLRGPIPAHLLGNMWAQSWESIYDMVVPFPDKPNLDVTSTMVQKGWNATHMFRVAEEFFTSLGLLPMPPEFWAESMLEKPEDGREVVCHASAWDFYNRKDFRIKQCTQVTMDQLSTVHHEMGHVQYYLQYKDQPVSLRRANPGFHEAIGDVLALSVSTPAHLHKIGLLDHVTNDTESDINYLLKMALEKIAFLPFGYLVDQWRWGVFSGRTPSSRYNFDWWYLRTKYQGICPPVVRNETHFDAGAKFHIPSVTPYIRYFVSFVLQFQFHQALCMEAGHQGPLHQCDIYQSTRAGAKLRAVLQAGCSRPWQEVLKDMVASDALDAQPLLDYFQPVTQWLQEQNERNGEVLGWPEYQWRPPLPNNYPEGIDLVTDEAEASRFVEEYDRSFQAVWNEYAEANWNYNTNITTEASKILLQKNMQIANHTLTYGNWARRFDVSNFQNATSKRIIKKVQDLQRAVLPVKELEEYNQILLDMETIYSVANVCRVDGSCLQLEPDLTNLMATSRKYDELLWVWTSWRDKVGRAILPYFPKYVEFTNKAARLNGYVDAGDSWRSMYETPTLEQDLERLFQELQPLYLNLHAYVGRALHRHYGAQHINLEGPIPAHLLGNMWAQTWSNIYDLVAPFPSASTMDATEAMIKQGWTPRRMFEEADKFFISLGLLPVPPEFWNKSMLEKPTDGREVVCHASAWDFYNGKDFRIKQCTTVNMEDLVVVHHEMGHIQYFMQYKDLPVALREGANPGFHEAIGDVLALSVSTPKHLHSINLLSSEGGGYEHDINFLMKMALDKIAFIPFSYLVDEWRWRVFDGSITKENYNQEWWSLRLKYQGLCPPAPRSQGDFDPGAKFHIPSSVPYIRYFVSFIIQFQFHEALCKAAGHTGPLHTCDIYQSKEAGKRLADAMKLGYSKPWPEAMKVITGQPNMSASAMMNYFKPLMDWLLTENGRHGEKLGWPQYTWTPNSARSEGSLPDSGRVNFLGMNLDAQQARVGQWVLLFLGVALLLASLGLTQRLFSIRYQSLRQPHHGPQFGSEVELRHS
Label 1 (yes) when IC50 is strictly below 80 nM; otherwise label 0 (no).

See these solved cases before continuing.
{"columns": ["cpd_smiles", "target_or_system", "category"],
 "data": [
  ["CCC[C@H](NC(=O)[C@@H](CS)Cc1ccccc1)C(=O)N1CCC[C@H]1C(=O)O", "Angiotensin-converting enzyme (Oryctolagus cuniculus, UniProt P12822)", "1 (yes)"],
  ["C[C@H](NC(=O)[C@@H](CS)Cc1ccccc1)C(=O)O", "Angiotensin-converting enzyme (Oryctolagus cuniculus, UniProt P12822)", "0 (no)"],
  ["O=C(O)CCNC(=O)[C@@H](CS)Cc1ccccc1", "Angiotensin-converting enzyme (Oryctolagus cuniculus, UniProt P12822)", "0 (no)"]
]}

Next:
Is the reported IC50 for "C[C@H](CS)C(=O)N[C@@H](C)C(=O)N1CCC[C@@H]1C(=O)O" strictly below 80 nM? 0 (no)

###

Biological target: Angiotensin-converting enzyme (Oryctolagus cuniculus)
Sequence (P12822 whole entry): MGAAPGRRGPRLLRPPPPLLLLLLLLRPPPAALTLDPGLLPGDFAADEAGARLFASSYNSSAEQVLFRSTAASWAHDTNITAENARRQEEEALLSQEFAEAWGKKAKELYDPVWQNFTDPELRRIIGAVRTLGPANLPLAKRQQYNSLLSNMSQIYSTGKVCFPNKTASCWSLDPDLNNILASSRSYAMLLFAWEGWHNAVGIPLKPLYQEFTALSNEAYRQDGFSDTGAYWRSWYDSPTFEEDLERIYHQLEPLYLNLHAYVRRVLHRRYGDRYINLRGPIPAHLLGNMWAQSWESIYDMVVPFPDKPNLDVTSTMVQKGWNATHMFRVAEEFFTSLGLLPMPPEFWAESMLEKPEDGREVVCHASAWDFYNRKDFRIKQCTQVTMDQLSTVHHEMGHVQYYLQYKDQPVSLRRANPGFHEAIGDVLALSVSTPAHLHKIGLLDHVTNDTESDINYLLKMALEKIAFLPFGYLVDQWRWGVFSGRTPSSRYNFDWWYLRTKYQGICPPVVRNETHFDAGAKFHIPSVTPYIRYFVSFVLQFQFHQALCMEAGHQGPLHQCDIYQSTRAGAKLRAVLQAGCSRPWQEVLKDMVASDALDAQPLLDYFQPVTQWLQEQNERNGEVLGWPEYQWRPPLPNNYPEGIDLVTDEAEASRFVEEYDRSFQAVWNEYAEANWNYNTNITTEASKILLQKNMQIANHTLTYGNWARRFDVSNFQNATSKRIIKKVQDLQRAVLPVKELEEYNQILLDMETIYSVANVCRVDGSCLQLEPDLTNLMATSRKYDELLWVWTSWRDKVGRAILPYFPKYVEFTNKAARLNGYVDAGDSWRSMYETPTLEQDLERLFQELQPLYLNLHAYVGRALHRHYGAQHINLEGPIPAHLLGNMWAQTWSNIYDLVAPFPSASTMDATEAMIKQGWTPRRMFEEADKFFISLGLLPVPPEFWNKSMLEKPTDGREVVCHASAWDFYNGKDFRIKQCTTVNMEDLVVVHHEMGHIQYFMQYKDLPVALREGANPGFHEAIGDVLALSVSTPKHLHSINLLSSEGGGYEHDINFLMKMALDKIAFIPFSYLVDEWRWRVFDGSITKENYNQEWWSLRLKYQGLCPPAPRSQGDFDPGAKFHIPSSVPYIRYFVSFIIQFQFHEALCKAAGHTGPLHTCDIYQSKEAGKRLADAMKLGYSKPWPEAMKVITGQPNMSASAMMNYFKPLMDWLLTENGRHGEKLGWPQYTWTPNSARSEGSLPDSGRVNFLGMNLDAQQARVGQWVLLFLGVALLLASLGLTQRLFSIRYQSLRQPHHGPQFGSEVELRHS
Readings of IC50 for the listed compounds
Numbers only here, please. The scale is nM.

Consider the worked cases shown below.
{"columns": ["cpd_smiles", "recorded_result"],
 "data": [
  ["C[C@H](NC(=O)[C@@H](CS)Cc1ccccc1Cl)C(=O)N1CCC[C@@H]1C(=O)O", 25],
  ["C[C@H](NC(=O)[C@H](S)Cc1ccccc1)C(=O)N1CCC[C@H]1C(=O)O", 80],
  ["C[C@H](NC(=O)[C@H](Cc1ccccc1)[C@H](C)S)C(=O)N1CCC[C@H]1C(=O)O", 452]
]}

# input for lookup
State the recorded IC50 for this entry: "C[C@H](NC(=O)[C@@H](CS)Cc1ccc(OCc2ccccc2)cc1)C(=O)N1CCC[C@@H]1C(=O)O" 880

###

Molecular target: Neprilysin (Rattus norvegicus, UniProt P07861)
Sequence (P07861 whole entry): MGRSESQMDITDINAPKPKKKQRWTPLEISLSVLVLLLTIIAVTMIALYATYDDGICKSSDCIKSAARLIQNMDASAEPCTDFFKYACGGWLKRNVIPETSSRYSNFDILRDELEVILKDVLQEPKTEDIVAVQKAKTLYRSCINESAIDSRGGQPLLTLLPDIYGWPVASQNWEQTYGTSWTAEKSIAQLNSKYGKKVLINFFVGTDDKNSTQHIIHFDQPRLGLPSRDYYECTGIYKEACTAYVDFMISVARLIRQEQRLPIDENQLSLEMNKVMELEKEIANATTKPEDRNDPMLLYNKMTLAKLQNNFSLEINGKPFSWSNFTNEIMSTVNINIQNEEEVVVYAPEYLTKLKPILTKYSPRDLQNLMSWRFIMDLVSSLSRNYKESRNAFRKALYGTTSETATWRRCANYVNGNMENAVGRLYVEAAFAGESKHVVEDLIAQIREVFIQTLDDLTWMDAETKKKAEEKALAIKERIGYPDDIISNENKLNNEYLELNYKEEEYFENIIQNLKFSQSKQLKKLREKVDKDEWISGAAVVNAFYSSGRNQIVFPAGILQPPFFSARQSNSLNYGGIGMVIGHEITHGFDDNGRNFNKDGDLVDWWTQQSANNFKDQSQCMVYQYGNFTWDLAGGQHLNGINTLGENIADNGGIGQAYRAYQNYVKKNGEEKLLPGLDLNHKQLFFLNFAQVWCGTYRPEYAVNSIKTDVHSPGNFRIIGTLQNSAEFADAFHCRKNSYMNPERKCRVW
Label met when IC50 is strictly below 40 nM; otherwise label not met.

See these solved cases before continuing.
{"columns": ["compound", "category"],
 "data": [
  ["Cc1ccccc1C[C@H](CS)C(=O)N[C@@H](C)C(=O)N1CCC[C@@H]1C(=O)O", "met"],
  ["C[C@H](NC(=O)[C@H](S)Cc1ccccc1)C(=O)N1CCC[C@H]1C(=O)O", "not met"],
  ["C[C@H](NC(=O)[C@@H](CS)Cc1ccccc1Cl)C(=O)N1CCC[C@@H]1C(=O)O", "met"]
]}

Is the reported IC50 for "C[C@H](CS)C(=O)N[C@@H](C)C(=O)N1CCC[C@@H]1C(=O)O" strictly below 40 nM? not met

Queued: "C[C@H](NC(=O)[C@@H](CS)Cc1ccccc1)C(=O)N1CCC[C@H]1C(=O)O" met

Queued: C[C@H](NC(=O)C(CS)CCc1ccccc1)C(=O)N1CCC[C@@H]1C(=O)O (some centres undefined) not met

Queued: CC(C)CC(CS)C(=O)N[C@@H](C)C(=O)N1CCC[C@@H]1C(=O)O (some centres undefined) met

Queued: "C[C@H](NC(=O)[C@H](CS)Cc1ccccc1)C(=O)N1CCC[C@H]1C(=O)O" not met

Queued: "O=C(O)CCNC(=O)[C@@H](CS)Cc1ccccc1" met
